All figures here come from paper PMC8725944.

Give pIC50 for every item shown.
Test system: TNBC cell line MDA-MB-231
Assay: CCK-8 assay, antiproliferative activity against MDA-MB-231
Settings: Homo sapiens, MDA-MB-231, 72 h, read-out: IC50 MDA-MB-231
pIC50: −log10 of the molar value.

Field pIC50 (entry N[C@@H](Cc1ccc(N(CCCl)CCCl)cc1)C(=O)O [Compound 5, melphalan, reference compound] ) reads < 4.70

Field pIC50 (entry COC(=O)[C@H](Cc1ccc(N(CCCl)CCCl)cc1)NC(=O)CCC(=O)O [Compound 9, reference compound] ) reads < 4.70

Field pIC50 (entry Cc1ccc2occ(COC(=O)[C@H](Cc3ccc(N(CCCl)CCCl)cc3)NC(=O)OC(C)(C)C)c(=O)c2c1 [Compound 17c] ) reads < 4.70
